- Test system: E. coli TESEC Mtb Alr
- Measurement Protocol: growth (OD600 after 10 h); higher = more growth (less inhibition)
- Test Conditions: arabinose 1000000 nM; compound 0.1 mM; raw OD600 reference: median of DMSO wells 0.193, cell-free background 0.041
Structures can show the parent of a compound that is named as a salt.
Metric Name: growth
// return just the number, without any unit appended

Here is how some compounds turned out for growth.
Query (compound): O=C(O)c1cc(=O)c2c(OCC(O)COc3cccc4oc(C(=O)O)cc(=O)c34)cccc2o1 [Cromolyn disodium salt] ; field requested: growth
0.201

Try CCc1cc(Cl)c(OC)c(C(=O)NC[C@@H]2CCCN2CC)c1O [S(-)Eticlopride hydrochloride] next.
0.122

Try C[C@@H](O)[C@H]1C(=O)N2C(C(=O)O)=C(SCCNC=N)C[C@H]12 [Imipenem] next.
0.174

Try COc1cnc(NS(=O)(=O)c2ccc(N)cc2)nc1 [Sulfameter] next.
0.158

Try N=C(N)NCc1cccc(I)c1 [Iobenguane sulfate] next.
0.202

Try O=C(c1ccccc1)c1ccc2n1CCC2C(=O)O (stereo not drawn) [Ketorolac tromethamine] next.
0.195

Try CC(C)(C)NC(=O)[C@H]1CC[C@H]2[C@@H]3CC[C@H]4NC(=O)C=C[C@]4(C)[C@H]3CC[C@]12C [Finasteride] next.
0.0954

Pending compound:
Query (compound): CC[N+](CC)(CC)CCOc1cccc(OCC[N+](CC)(CC)CC)c1OCC[N+](CC)(CC)CC [Gallamine triethiodide] ; field requested: growth
0.191

###

- System: E. coli TESEC Alr+ wild-type control
- Measurement Protocol: growth (OD600 after 10 h); higher = more growth (less inhibition)
- Test Conditions: compound 0.1 mM; raw OD600 reference: median of DMSO wells 0.241, cell-free background 0.041
Where a name gives a salt, the structure may show the parent alone.
growth values for the compounds below.
// return just the number, without any unit appended

Query (compound): CC(C)(C)NC(=O)[C@@H]1CN(Cc2cccnc2)CCN1C[C@@H](O)C[C@@H](Cc1ccccc1)C(=O)N[C@H]1c2ccccc2C[C@H]1O [Indinavir sulfate] ; field requested: growth
0.211

Try C=CC(N)CCC(=O)O (stereo not drawn) next.
0.239

Try `O=C(CCCN1CCN(c2ccccn2)CC1)c1ccc(F)cc1` next.
0.192

Try `Cc1ccc(-c2ncc(Cl)cc2-c2ccc(S(C)(=O)=O)cc2)cn1` next.
0.17

Try `NNC(=O)c1ccncc1` next.
0.242

Try `Cn1c(NCCN(CCO)CCCc2ccc([N+](=O)[O-])cc2)cc(=O)n(C)c1=O` next.
0.241

Try `CCCCC[C@H](O)/C=C/[C@H]1[C@H](O)CC(=O)[C@@H]1CCCCCCC(=O)O` next.
0.215

Try Cc1ccc(/C(=C\CN2CCCC2)c2ccccn2)cc1 [Triprolidine hydrochloride] next.
0.223

More entries:
Query (compound): CCN1CC(CCN2CCOCC2)C(c2ccccc2)(c2ccccc2)C1=O (stereo not drawn) [Doxapram hydrochloride] ; field requested: growth
0.234

Try `COc1cc(C)c(/C=C/C(C)=C/C=C/C(C)=C/C(=O)O)c(C)c1C` next.
0.227

Try CCc1cccc2c3c([nH]c12)C(CC)(CC(=O)O)OCC3 (stereo not drawn) next.
0.24

Try `CCCCNc1ccc(C(=O)OCCN(C)C)cc1` next.
0.208

Try Cc1cccc(C)c1NC(=O)C(C)N (stereo not drawn) [Tocainide hydrochloride] next.
0.26
